TARGET_SYSTEM: ALCAT1 (Homo sapiens (Human), UniProt Q6UWP7)
Sequence (Q6UWP7 whole entry): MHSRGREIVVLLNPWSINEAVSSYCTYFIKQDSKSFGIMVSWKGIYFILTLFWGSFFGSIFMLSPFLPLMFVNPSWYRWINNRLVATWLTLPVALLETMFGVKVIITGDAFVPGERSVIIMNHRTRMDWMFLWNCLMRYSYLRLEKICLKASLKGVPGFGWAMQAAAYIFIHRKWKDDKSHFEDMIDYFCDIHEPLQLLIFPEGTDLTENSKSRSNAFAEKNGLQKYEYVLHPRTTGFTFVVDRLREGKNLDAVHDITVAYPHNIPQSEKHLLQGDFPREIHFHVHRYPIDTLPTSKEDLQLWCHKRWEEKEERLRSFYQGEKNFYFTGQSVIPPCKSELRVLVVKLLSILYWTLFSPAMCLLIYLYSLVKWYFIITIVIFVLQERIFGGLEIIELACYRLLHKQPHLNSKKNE
PROTOCOL_TEXT: In vitro acyltransferase assay for ALCAT1 inhibitors
Type: biochemical
SETTINGS: ALCAT1 enzyme activity; triplicates, GraphPad; read-out: IC50
READOUT_NAME: pIC50
pIC50 field: float, defined as -log10 of concentration (mol/L).

[[record]]
structure_smiles_string = "O=C(Nc1cc(Cl)ccc1F)c1cccc(-c2nnc(-c3ccco3)o2)c1"
recorded_number = 6.77

[[record]]
structure_smiles_string = "COc1ccc(Cl)cc1C(=O)Nc1cc(-c2nnc(-c3cnco3)o2)ccc1F"
recorded_number = 6.92

[[record]]
structure_smiles_string = "O=C(Nc1cc(-c2nnc(-c3ccco3)o2)ccc1F)c1cc(Cl)ccc1OCF"
recorded_number = 7.72

[[record]]
structure_smiles_string = "O=C(Nc1cccc(-c2nnc(-c3ccco3)o2)c1)c1ccccc1F"
recorded_number = 6.68


Lab book: pIC50 of "CCOc1ccc(Br)cc1C(=O)Nc1cccc(-c2nnc(-c3ccco3)o2)c1" noted as 7.51
